Please find below IC50 measurements for Tyrosine-protein kinase receptor UFO (Homo sapiens, UniProt P30530), combined from several publications.
Readout label: IC50

Compound	Readout label	Measured value
C[C@H](CC(F)(F)F)Nc1ncc2c(OC3CCOCC3)ncc([C@H]3CC[C@H](O)CC3)c2n1	IC50	1000 to 10000 nM
COC[C@H](C)Nc1ncc2c(-c3cnn(C4COC4)c3)cc([C@H]3CCc4[nH]ncc4C3)n2n1	IC50	≤ 100 nM
COc1cc2nccc(Oc3ccc(NC(=O)c4cn(C(C)C)cc(-c5ccc(C)cc5)c4=O)nc3)c2cc1OC	IC50	17 nM
COc1cc2nccc(Oc3ccc(NC(=O)c4c(C)nc(C)c(C(N)=O)c4O)cc3)c2nc1OC	IC50	> 300 nM
CCc1ccc2c(c1)c(=O)c(C(=O)Nc1ccc(Oc3ncnc4[nH]cc(-c5ccccc5)c34)cc1)c(C)n2C	IC50	105 nM
COc1cc2nccc(Oc3ccc(NC(=O)c4cnc(C)c(/C=C/CC(C)C)c4O)cc3F)c2cc1OC	IC50	≤ 100 nM
CC[C@H](C)Nc1ncc2c(OCC(F)(F)F)ncc([C@H]3CC[C@H](O)CC3)c2n1	IC50	100 to 1000 nM
COc1cc2nccc(Oc3ccc(NC(=O)c4cn(CC5CCSCC5)cc(-c5ccc(C)cc5)c4=O)nc3)c2cc1OC	IC50	35 nM
COc1cc2nccc(Oc3cnc(NC(=O)c4cn(CC5CCOCC5)cc(-c5ccc(C)cc5)c4=O)nc3)c2cc1OC	IC50	9 nM
COCCOc1cnc2c(Oc3ccc(NC(=O)c4c(C)n(C)c(C)c(C5=CCCCC5)c4=O)cc3F)ccnc2c1	IC50	≤ 100 nM
C[C@H](Nc1ncc2c(-c3cnn(C4COC4)c3)cc([C@H]3CC[C@H](O)CC3)n2n1)C(F)(F)F	IC50	100 to 1000 nM
Cc1cc(-c2cc([C@H]3CC[C@H](O)CC3)n3nc(N[C@@H](C)CC(F)(F)F)ncc23)ccn1	IC50	≤ 100 nM
COc1cc2ncnc(Oc3ccc(NC(=O)c4c5n(c6cc(N7CCN(Cc8oc(=O)oc8C)CC7)c(F)cc6c4=O)C(C)S5)cc3F)c2cc1OC (centres unmarked)	IC50	720 nM
CC[C@H](C)Nc1ncc2c(-c3ccc(CN4CCN(C)CC4)cc3)cc(C3CCC(C)(O)CC3)n2n1 (stereo in doubt)	IC50	≤ 100 nM
CNC(=O)c1cc(-c2cc([C@H]3CC[C@H](O)CC3)n3nc(N[C@@H](C)CC(F)(F)F)ncc23)cc(C)n1	IC50	100 to 1000 nM
O=C(O)c1ccc(Nc2ncc3c(OC4CCOCC4)ncc([C@H]4CC[C@H](O)CC4)c3n2)cc1	IC50	≤ 100 nM
COC[C@H](C)Nc1ncc2c(-c3ccnc(N4CCN(S(=O)(=O)C(F)(F)F)CC4)c3)cc([C@H]3CC[C@H](O)CC3)n2n1	IC50	100 to 1000 nM
COC[C@H](C)Nc1ncc2c(-c3cn(C[Si](C)(C)C)nn3)cc([C@H]3CC[C@H](O)CC3)n2n1	IC50	100 to 1000 nM
COc1cnc2c(Oc3ccc(NC(=O)c4c(C)nc(C)c(C(C)C)c4O)cc3F)ccnc2c1	IC50	≤ 100 nM
C[C@@H](CF)Nc1ncc2c(OC3CC(C)(C)N(C)C(C)(C)C3)ncc([C@H]3CC[C@H](O)CC3)c2n1	IC50	100 to 1000 nM
Nc1ncc(-c2cnn(C3CCN(C(=O)Cc4ccccc4)CC3)c2)cc1-c1nc(-c2ccccc2)no1	IC50	500 to 1000 nM
COc1cc2nccc(Oc3cc(F)c(NC(=O)c4c(C)nc(C)c(C(C)C)c4O)cc3F)c2nc1OC	IC50	≤ 100 nM
COC[C@H](C)Nc1ncc2c(C)ncc([C@H]3CC[C@H](O)CC3)c2n1	IC50	100 to 1000 nM
Nc1ncc(-c2cnn(C3CCCCC3)c2)cc1-c1ncc(-c2ccccc2)o1	IC50	1000 to 10000 nM
COC[C@H](C)Nc1ncc2c(-c3ccnc(N4CCC5(CC4)COC5)c3)cc([C@H]3CC[C@H](O)CC3)n2n1	IC50	≤ 100 nM
C=C(C)c1ccc2c(c1)c(=O)c(C(=O)Nc1ccc(Oc3ncnc4[nH]cc(-c5ccccc5)c34)c(F)c1)c(C)n2C	IC50	324 nM
Cc1c(C(=O)Nc2ccc(Oc3ncnc4[nH]cc(-c5ccccc5)c34)c(F)c2)c(=O)c2cc3ccccc3cc2n1C	IC50	> 10000 nM
Nc1ncc(-c2cnn(C3CCNCC3)c2)cc1-c1nnc(-c2nc(C(F)(F)F)cs2)o1	IC50	< 500 nM
COC[C@H](C)Nc1ncc2c(-c3cncc(CN4CCOCC4)c3)cc([C@H]3CC[C@H](O)CC3)n2n1	IC50	100 to 1000 nM

###

Please find below IC50 measurements for Tyrosine-protein kinase receptor UFO (Homo sapiens), combined from several publications.
Readout label: IC50

Molecule	Measured value
COCC(C)Nc1ncc2c(-c3ccc4ocnc4c3)cc(C3CCC(O)CC3)n2n1 (stereo not shown)	≤ 0.1 µM
COc1cc2nccc(Oc3ccc(NC(=O)c4c(C)n(C)c(C)c(C5CC5)c4=O)cc3)c2nc1OC	≤ 0.1 µM
Nc1nccc(Oc2ncc(NC(=O)c3nn(C4CC4)cc(-c4ccc(F)cc4)c3=O)cn2)c1Cl	0.017 µM
COC[C@H](C)Nc1ncc2c(-c3cnn([C@H]4CCNC4=O)c3)cc([C@H]3CC[C@H](O)CC3)n2n1	≤ 0.1 µM

###

pIC50: −log10 of the molar value.
Please find below pIC50 measurements for Tyrosine-protein kinase receptor UFO (Homo sapiens, UniProt P30530), combined from several publications.

Compound	pIC50
COc1cc2nccc(Oc3ccc(NC(=O)c4cc(C(C)=O)c(C)n(-c5ccc(F)cn5)c4=O)cc3F)c2nc1OC	≥ 7.00
COc1cc(N2CCN(C)CC2)ccc1Nc1ncc2c(n1)n1c(cc3ccccc31)c(=O)n2C	≤ 5.30
COC[C@H](C)Nc1ncc2c(-c3cccc(CN4CCCC4)c3)cc([C@H]3CC[C@H](O)CC3)n2n1	6.00 to 7.00
COC[C@H](C)Nc1ncc2c(-c3cnn(Cc4nc(C)no4)c3)cc([C@H]3CC[C@H](O)CC3)n2n1	≥ 7.00
C[C@@H](CC(F)(F)F)Nc1ncc2c([C@H]3CC[C@@H](C(=O)N4CCOCC4)CC3)cc([C@H]3CC[C@H](O)CC3)n2n1	≥ 7.00
COC[C@H](C)Nc1ncc2c(-c3ccnc(C)c3)cc([C@H]3CC[C@](C)(O)CC3)n2n1	≥ 7.00
COC[C@H](C)Nc1ncc2c(-c3cnn(C4COC4)c3)cc([C@H]3CC[C@](C)(O)CC3)n2n1 (single isomer, unassigned)	≥ 7.00
COC[C@H](C)Nc1ncc2c(OC3CCOCC3)ncc(-c3ccc(CO)cc3)c2n1	5.00 to 6.00
COc1ccc2nccc(Oc3ccc(NC(=O)c4cnc(C)c(C5=CCCC5)c4O)cc3F)c2n1	≥ 7.00
C[C@@H](CC(F)(F)F)Nc1ncc2c(-c3ccnc(N4CCOCC4)c3)cc([C@H]3CC[C@H](O)CC3)n2n1	≥ 7.00
COc1cc2nccc(Oc3ccc(NC(=O)c4cnc(C)c(/C=C/C(C)(C)C)c4O)cc3F)c2nc1OC	≥ 7.00
Cc1c(C(=O)Nc2ccc(Oc3ncnc4[nH]cc(-c5ccccc5)c34)c(F)c2)c(=O)c2ccc(Cl)cc2n1C	< 5.00
CNc1ncc2c(n1)N1CCN=C1C(c1ccc(NC(=O)C3(C(=O)Nc4ccc(F)cc4)CC3)cc1F)=C2	< 5.00
CCCC(C)Nc1ncc2c(OC[C@H]3CC[C@H](O)CC3)ncc([C@H]3CC[C@H](O)CC3)c2n1 (some centres unmarked)	6.00 to 7.00

###

Please find below IC50 measurements for UniProt:P30530, combined from several publications.

Compound	IC50
O[C@H]1CC[C@H](c2cc(-c3ccnc(N4CCOCC4)c3)c3cnc(NCCC(F)(F)F)nn32)CC1	≤ 0.1 µM
COC[C@H](C)Nc1ncc2c(O[C@H]3C[C@H](C(=O)N4CCN(C)CC4)C3)ncc([C@H]3CC[C@H](O)CC3)c2n1	0.1 to 1 µM
Nc1ncc(-c2cnn(C3CCN(C(=O)c4ccccc4)CC3)c2)cc1-c1nc(-c2ccccc2)no1	1 to 10 µM
COc1cc2nccc(Oc3ccc(NC(=O)c4cn(CCF)c(C)c(C5CCCC5)c4=O)cc3F)c2nc1OC	≤ 0.1 µM
CCCC(C)Nc1ncc2c(OCCN(C)C)ncc([C@H]3CC[C@H](O)CC3)c2n1 (stereo partly drawn)	1 to 10 µM
CC(C)n1cc(-c2ccc(F)cc2)c(=O)c(C(=O)Nc2ccc(Oc3ccnc(N)c3Cl)nc2)n1	0.009 µM
COC[C@H](C)Nc1ncc2c(-c3cnn(C4CN(C(C)=O)C4)c3)cc([C@H]3CC[C@H](O)CC3)n2n1	≤ 0.1 µM
CCN1CCC(n2cc(-c3cnc(N)c(-c4nc(-c5c(Cl)cccc5Cl)no4)c3)cn2)CC1	< 0.5 µM
COc1ccc(-c2cnc(N)c(-c3ccc(NC(=O)c4cn(CC5CCOCC5)c(=O)n(-c5ccc(C)cc5)c4=O)cc3)c2)cc1OC	0.057 µM
COc1ccc2nccc(Oc3ccc(NC(=O)c4ccc(C)n(-c5ccc(F)cn5)c4=O)cc3F)c2n1	≤ 0.1 µM
COC[C@H](C)Nc1ncc2c(-c3cnn(CC(=O)N4CCCC4)c3)cc([C@H]3CC[C@H](O)CC3)n2n1	≤ 0.1 µM
COC[C@H](C)Nc1ncc2c([C@H]3CCN(S(C)(=O)=O)C3)cc([C@H]3CC[C@H](O)CC3)n2n1	0.1 to 1 µM
CCCCC[C@H](C)Nc1ncc2c(N3CCNCC3)cc([C@H]3CC[C@H](O)CC3)n2n1	≤ 0.1 µM
COc1cc2nccc(Oc3cnc(NC(=O)c4nn(CC5CCSCC5)cc(-c5ccc(C)cc5)c4=O)nc3)c2cc1OC	0.009 µM
C[C@@H](CC(F)(F)F)Nc1ncc2c(-c3ccc(S(C)(=O)=O)nc3)cc([C@H]3CC[C@H](O)CC3)n2n1	≤ 0.1 µM
